system: HT-1197 cells; test: Cell-based assay: anti-proliferative activity, Cell Counting Kit-8, 72 hours (HT-1197, negative control without MELK expression); conditions: Homo sapiens, HT1197, 72 h, HT1197 cells (negative control, no MELK expression), 72 hours
Structures can show the parent of a compound that is named as a salt.
property_name: IC50 (µM)

{"compound": "COc1cc(-c2ccc3ncc(C(=O)C4CC4)c(Nc4ccc(NCCN(C)C)nc4)c3c2)cc(Cl)c1O", "unit_abbrev": "µM", "val": 6.2}
{"compound": "CC(=O)c1cnc2ccc(-c3cc(Cl)c(O)c(Cl)c3)cc2c1N[C@H]1CC[C@H](CN2CCCC(N)C2)CC1 (some centres unmarked)", "unit_abbrev": "µM", "val": 2.3}
{"compound": "COc1cc(-c2ccc3ncc(C(C)=O)c(Nc4ccc(CN5CCCC5)cc4)c3c2)cc(Cl)c1O", "unit_abbrev": "µM", "val": 5.1}
{"compound": "NCc1ccc(Nc2c(C(=O)C3CC3)cnc3ccc(-c4cc(F)c(O)c(Cl)c4)cc23)cc1", "unit_abbrev": "µM", "val": 0.71}
{"compound": "CN(C)C1CCN(C[C@H]2CC[C@H](Nc3c(C(=O)C4CC4)cnc4ccc(-c5cc(F)c(O)c(Cl)c5)cc34)CC2)C1 (some centres unmarked)", "unit_abbrev": "µM", "val": 0.95}
{"compound": "CN(C)C1CCN(c2ccc(Nc3c(C(=O)C4CC4)cnc4ccc(-c5cc(Cl)c(O)c(Cl)c5)cc34)cn2)C1 (centres unmarked)", "unit_abbrev": "µM", "val": 4}
{"compound": "COc1cc(-c2ccc3ncc(C(=O)C4CC4)c(NC4CCC(N5CCC(F)(F)C5)CC4)c3c2)cc(Cl)c1O (centres unmarked)", "unit_abbrev": "µM", "val": 11}
{"compound": "CNC[C@H]1CC[C@H](Nc2c(C(=O)C3CC3)cnc3ccc(-c4cc(Cl)c(O)c(Cl)c4)cc23)CC1", "unit_abbrev": "µM", "val": 0.73}
{"compound": "CN(C)CCN1CCC(Nc2c(C(=O)C3CC3)cnc3ccc(-c4cc(F)c(O)c(Cl)c4)cc23)CC1", "unit_abbrev": "µM", "val": 2.5}
{"compound": "CCC(=O)c1cnc2ccc(-c3cc(Cl)c(O)c(Cl)c3)cc2c1Nc1ccc(N2CCC(N)C2)nc1 (centres unmarked)", "unit_abbrev": "µM", "val": 1.5}
{"compound": "COc1cc(-c2ccc3ncc(C(=O)C4CC4)c(N4CCN(CCN5CCCC5)CC4)c3c2)cc(Cl)c1O", "unit_abbrev": "µM", "val": 5.3}
{"compound": "CNC1CCN(c2ccc(Nc3c(C(C)=O)cnc4ccc(-c5cc(F)c(O)c(Cl)c5)cc34)cn2)C1 (centres unmarked) [Example 785, trihydrochloride]", "unit_abbrev": "µM", "val": 1.3}
{"compound": "CC(C)C(=O)c1cnc2ccc(-c3cc4cc(O)ccc4[nH]3)cc2c1N[C@H]1CC[C@H](N)CC1", "unit_abbrev": "µM", "val": 4.6}
{"compound": "CC(=O)c1cnc2ccc(-c3cc(Cl)c(O)c(Cl)c3)cc2c1Nc1ccc2c(c1)CCC2N(C)C (centres unmarked)", "unit_abbrev": "µM", "val": 0.38}
